This collection of values is drawn from paper PMC2375871.

- experimental system: Free AMPD (wood frog skeletal muscle, control frogs)
- Construct: gene AMPD1; native, soluble (free) form in skeletal muscle extract of 5°C-acclimated control frogs, Sephadex G-50 desalted, not purified
- protocol summary: AMP deaminase activity, […] nm absorbance
- Assay type: biochemical, Lithobates sylvaticus
- recorded conditions: activation constant (half-maximal activation, 2.17-fold), as Mg·ADP, 0.5 mM AMP, pH 7.2, 25°C, allosteric
property measured: EC50
Mention the unit after the number when you answer.

Problem: I would be grateful if you could share the reported EC50 for Nc1ncnc2c1ncn2[C@@H]1O[C@H](COP(=O)(O)OP(=O)(O)O)[C@@H](O)[C@H]1O [Mg·ADP] .
Result: 1120 µM
